These data points were gathered from patent US20110020369A1.

- SYSTEM: T1, human TSLPR on Ba/F3-hTSLPR-hIL7Ra cells (human, UniProt Q9HC73 23-371)
- T1 sequence (looked up): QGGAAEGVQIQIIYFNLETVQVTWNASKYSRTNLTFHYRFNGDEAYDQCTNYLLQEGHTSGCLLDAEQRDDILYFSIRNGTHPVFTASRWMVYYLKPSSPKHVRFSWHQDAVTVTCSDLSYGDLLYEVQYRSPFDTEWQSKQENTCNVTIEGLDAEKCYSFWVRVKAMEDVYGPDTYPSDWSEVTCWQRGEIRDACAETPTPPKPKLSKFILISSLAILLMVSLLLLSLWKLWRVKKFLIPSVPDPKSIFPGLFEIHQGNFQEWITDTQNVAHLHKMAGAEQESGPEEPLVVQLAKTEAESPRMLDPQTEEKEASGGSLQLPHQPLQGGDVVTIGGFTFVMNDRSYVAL
- ASSAY: cell-based or functional assay
Measured Avg IC50, Ba/F3-huTSLPR proliferation accompanies every entry in the list below.
A number alone suffices; assume ng/mL.

>  <BINDER>
mouse anti-human TSLPR antibody 70E8 (antibody, mouse IgG1, V domains shown, Mouse IgG1/kappa from hybridoma; also called m70E8; LB55.70E8.1A8) VH: DVQLQESGPDLVKPSQSLSLTCTVTNYSITSGYSWPWIRQFPGNKLEWLGYIHSSGRTNYNPSLKSRISITRDTSKNQFFLQLNSVTPEDTATYYCARSQLGLVFFAYWGQGTLVTVSA VL: DIVMTQSQKFMSTSVGDRVSVTCKASQSVGANVAWYQQIPGHSPKVLIYSASYRFSGVPDRFTGSGSGTDFTLTISNVQSEDLAEYFCQQYNSYPYTFGGGTKLEIRR

>  <OUTPUT UNIT>
ng/mL

>  <Avg IC50, Ba/F3-huTSLPR proliferation>
44.6

$$$$
>  <BINDER>
mouse antibody 61C11 (antibody, mouse IgG2a, V domains shown, Mouse IgG2a/kappa from hybridoma; also called m61C11; LB55.61C11.2B1) VH: QAYLQQSGAELVRSGASVKMSCKASGYTFTSYNLHWIKLTPGQGLEWIGYIYPGLNGTLYNQKFRGKATLTADTSSSTAYMQISSLTSEDSAVYFCARSDYGKAWFAYWGRGTLVTVSA VL: DILLTQSPAILSVSPGERVSFSCRASQSIATKIHWYQQRTDHSPRLLIQLGSESISGIPSRFSGSGSGTDFTFTINSVESEDIAVYYCQQSNRYPYTFGGGTKLEVKR

>  <OUTPUT UNIT>
ng/mL

>  <Avg IC50, Ba/F3-huTSLPR proliferation>
162

$$$$
>  <BINDER>
mouse antibody 54C11 (antibody, mouse IgG2a, V domains shown, Mouse IgG2a/kappa from hybridoma; also called m54C11; LB55.54C11.3G11) VH: QVQLQQSGPEVVRPGVSVKISCKGSGFTFTDYAIHWVRQSHAKSLEWIGIIRPSNGNTNCDQKFKDKATMTVDKSSSTAYLDLARLTSEDSAIYYCSRSRVWGGSLAYWGQGTLVTVSA VL: DIVMTQSQKFMSTSVGDRVSVTCKASQNVGTNIAWYQQKPGQSPEALIYSASYRYSGVPDRFTGSGSGTDFTLTITNVQSEDLAEYFCQQYKSYPWTFGGGTKLEIKR

>  <OUTPUT UNIT>
ng/mL

>  <Avg IC50, Ba/F3-huTSLPR proliferation>
20.3

$$$$

Attention now shifts to the item below.
Sample mouse antibody 49A5 (antibody, mouse IgG1, V domains shown, Mouse IgG1/kappa from hybridoma; also called m49A5; LB55.49A5.2F9) VH: QVQLKQSGPGLVQPSQSLSITCTVSGFSLTTYGVHWVRQSPGKGLEWLGVIWRGGNTAYNPAFMSRLSITKDNSKSQVFFKMNSLQADDTAIYHCAKKSYYGYHAMGYWGQGTSVTVSS VL: DIQMTQTTSSLSASLGDRVTINCRASQDISNYLNWYQQNPDGTVKLLIYYTSRLHSGVPSRFSGSGSGTDYSLTISNLEQEDIATYFCQQANTLPWTFGGGTKLEIKR — what was its Avg IC50, Ba/F3-huTSLPR proliferation? 127
